Target: δ-cadinene synthase (DCS-His6) (Gossypium arboreum, UniProt Q39761)
Construct: hexahistidine (His6) (C); made in house; host or cells: E. coli BL-21 (DE3)
Sequence (Q39761 1-554): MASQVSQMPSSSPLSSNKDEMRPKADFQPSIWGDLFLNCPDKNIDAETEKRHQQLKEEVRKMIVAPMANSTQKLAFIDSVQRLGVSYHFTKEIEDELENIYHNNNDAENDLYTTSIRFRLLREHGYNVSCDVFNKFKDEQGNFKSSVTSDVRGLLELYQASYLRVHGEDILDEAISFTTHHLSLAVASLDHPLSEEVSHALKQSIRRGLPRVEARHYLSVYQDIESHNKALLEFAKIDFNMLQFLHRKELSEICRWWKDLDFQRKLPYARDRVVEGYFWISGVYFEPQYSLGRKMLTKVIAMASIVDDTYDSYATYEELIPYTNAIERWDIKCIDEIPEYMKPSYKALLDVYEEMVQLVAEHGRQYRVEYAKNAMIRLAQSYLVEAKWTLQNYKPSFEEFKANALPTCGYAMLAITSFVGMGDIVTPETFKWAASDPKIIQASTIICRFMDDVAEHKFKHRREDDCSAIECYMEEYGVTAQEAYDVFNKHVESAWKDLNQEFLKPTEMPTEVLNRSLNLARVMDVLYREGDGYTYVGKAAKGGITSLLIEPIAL
Assay: Inhibition of δ-cadinene synthase, radiolabelled FDP assay
Assay type: biochemical
Conditions: +250 μM PPi, read-out: K i (μM) (+250 μM PPi)
Experimental: Recombinant AS and ADS were prepared and purified according to previously published procedures[17],[18] and both (R)-11 and (S)-11 were tested as inhibitors using a standard radiolabelled assay involving conversion of tritium labelled FDP by each enzyme and scintillation counting of the pentane extractable products.[5b] Terpene synthases are known to efficiently bind cation-PPi pairs and inhibition was assessed both in the presence and absence of 250 μM diphosphate (Table 1). […]
quantityMeasured: Ki (µM)

- compound: "CC(C)=CCCN(C)[C@@H]1CC=C(C)CC1 [(S)-11]"
  measuredResult: 3.44
- compound: "CC(C)=CCCN(C)[C@H]1CC=C(C)CC1 [(R)-11]"
  measuredResult: 2.5

* * *

biological target: amorpha-4,11-diene synthase (ADS) (Artemisia annua, UniProt Q9AR04); construct: made in house; assay: Inhibition of amorpha-4,11-diene synthase, radiolabelled FDP assay; type: biochemical; details: absence of PPi, read-out: K i
Sequence (Q9AR04 whole entry): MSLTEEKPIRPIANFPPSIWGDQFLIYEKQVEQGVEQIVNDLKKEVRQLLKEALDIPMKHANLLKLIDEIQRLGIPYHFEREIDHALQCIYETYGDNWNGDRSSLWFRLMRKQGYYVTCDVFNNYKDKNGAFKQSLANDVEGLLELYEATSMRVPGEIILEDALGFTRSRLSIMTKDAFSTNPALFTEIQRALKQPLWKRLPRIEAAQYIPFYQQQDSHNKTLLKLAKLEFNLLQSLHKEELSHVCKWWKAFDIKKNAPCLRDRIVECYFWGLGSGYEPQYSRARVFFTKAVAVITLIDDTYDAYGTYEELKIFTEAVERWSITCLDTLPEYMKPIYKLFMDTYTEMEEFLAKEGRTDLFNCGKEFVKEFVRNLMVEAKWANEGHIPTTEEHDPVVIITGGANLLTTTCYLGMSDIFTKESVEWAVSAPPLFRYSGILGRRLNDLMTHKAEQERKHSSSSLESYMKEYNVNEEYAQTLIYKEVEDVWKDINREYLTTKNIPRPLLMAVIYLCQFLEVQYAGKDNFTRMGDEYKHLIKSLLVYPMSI
pKi: −log10 of the molar value.
# reported pKi; entries follow
quantityMeasured: pKi

- compound: "CC(C)=CCCN(C)[C@@H]1CC=C(C)CC1 [(S)-11]"
  measuredResult: 4.60
- compound: "CC(C)=CCCN(C)[C@H]1CC=C(C)CC1 [(R)-11]"
  measuredResult: 4.30

* * *

Target: δ-cadinene synthase (DCS-His6) (Gossypium arboreum, UniProt Q39761)
Construct: hexahistidine (His6) (C); made in house; host or cells: E. coli BL-21 (DE3)
Sequence (Q39761 1-554): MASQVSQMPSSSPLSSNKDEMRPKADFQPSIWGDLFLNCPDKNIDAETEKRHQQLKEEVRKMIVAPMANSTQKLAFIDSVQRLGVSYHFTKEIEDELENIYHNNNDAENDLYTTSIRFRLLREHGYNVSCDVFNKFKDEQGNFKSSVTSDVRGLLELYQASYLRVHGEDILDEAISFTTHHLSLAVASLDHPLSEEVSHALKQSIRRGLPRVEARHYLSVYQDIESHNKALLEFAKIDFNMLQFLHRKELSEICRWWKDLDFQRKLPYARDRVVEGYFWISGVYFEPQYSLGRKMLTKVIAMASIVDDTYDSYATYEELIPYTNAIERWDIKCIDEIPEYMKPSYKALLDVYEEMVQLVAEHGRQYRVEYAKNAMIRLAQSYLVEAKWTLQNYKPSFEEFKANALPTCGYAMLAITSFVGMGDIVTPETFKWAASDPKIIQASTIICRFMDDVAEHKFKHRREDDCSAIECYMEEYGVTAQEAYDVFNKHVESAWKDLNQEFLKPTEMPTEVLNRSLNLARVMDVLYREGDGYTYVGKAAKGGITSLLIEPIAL
Test: Inhibition of δ-cadinene synthase, radiolabelled FDP assay
Assay type: biochemical
Conditions: absence of PPi, read-out: K i
pKi: −log10 of the molar value.
Catalogue of pKi readings, one per entry.
quantityMeasured: pKi

- molecule: "CC(C)=CCCN(C)[C@@H]1CC=C(C)CC1 [(S)-11]"
  quantityMeasured: "pKi"
  measuredResult: 3.56
- molecule: "CC(C)=CCCN(C)[C@H]1CC=C(C)CC1 [(R)-11]"
  quantityMeasured: "pKi"
  measuredResult: 2.77
